Answer each item with its documented TGI.
# Tested on: SK-OV-3 ovarian
# protocol-details: NCI tumour cell line growth inhibition, 48 h
Give bare numbers, in µM.

molecule	assayed-target	uom	TGI
Cc1cnc(SCCN2CCN(C)CC2)nc1-c1cc2ccccc2s1	SK-OV-3 ovarian	µM	13.8
Cn1c2ccccc2c2nnc(NNCc3ccccn3)nc21	SK-OV-3 ovarian	µM	7.22
CN(C)c1ccc(C(=C2C=CC(=[N+](C)C)C=C2)c2ccccc2Cl)cc1	SK-OV-3 ovarian	µM	0.992

Now turn to the next molecule.
Request: Note TGI for the molecule shown: COc1ccc(C(=O)OC2C(OC3C(O)COC(O[C@H]4C[C@H]5[C@@H]6CC=C7C[C@@H](O)CC[C@]7(C)[C@H]6CC[C@]5(C)[C@H]4[C@H](C)C(=O)CCC(C)C)C3OC(C)=O)OCC(O)C2O)cc1 (some centres undefined)
Response: 0.191

* * *

# System: TK-10 renal
# protocol-details: NCI tumour cell line growth inhibition, 48 h
Classify by measured TGI: rule met if it is equal to or exceeds 30 µM, rule not met if it is smaller.

Answered cases to consult:
compound	group
CC(=O)OC1[C@H](n2ccnc2)C[C@H]2[C@@H]3CC=C4CC(N5CCCC5)CC[C@]4(C)[C@H]3CC[C@]12C (stereo partly drawn)	rule met
CCCCCCCCCCCCCCCCOc1ccc(/C=C/C2=[N+](CCCl)CCO2)cc1	rule met
O=C1CSC(C(N=Nc2ccc(Cl)cc2)c2nc3ccccc3[nH]2)=N1 (stereo not drawn)	rule met
NCCN1C(=O)c2ccccc2C1(O)c1ccc(Cl)cc1 (stereo not drawn)	rule met

Request: # check: TGI of Cn1c2ccccc2c2nnc(NNCc3ccccn3)nc21 is greater than or equal to 30 µM
Response: rule not met

Request: # check: TGI of NC(CO)C(=O)NCC(=O)O (stereo not drawn) is greater than or equal to 30 µM
Response: rule met

Request: # check: TGI of Nc1c2c(nc3ccccc13)CCCc1ccccc1-2 is greater than or equal to 30 µM
Response: rule not met

Request: # check: TGI of C=CCn1c(-c2ccc(Cl)cc2Cl)csc1=Nc1c(C)n(C)n(-c2ccccc2)c1=O is greater than or equal to 30 µM
Response: rule not met

Request: # check: TGI of COc1cc2cc(C(=O)N3CC(CCl)c4c3cc(O)c3ccccc43)[nH]c2c(OC)c1OC (stereo not drawn) is greater than or equal to 30 µM
Response: rule met

Request: # check: TGI of COC(=O)c1ccc(C)cc1CC1Cc2c(C)cccc2C1=O (stereo not drawn) is greater than or equal to 30 µM
Response: rule met

Request: # check: TGI of CC1(C)CC(=O)c2c(ccc(C(=O)C[C@@H](N)CO)c2N)O1 is greater than or equal to 30 µM
Response: rule met

Request: # check: TGI of O=C1CCC2(c3ccccc3)Nc3ccc(Cl)cc3N12 (stereo not drawn) is greater than or equal to 30 µM
Response: rule met

Request: # check: TGI of COc1ccc(/C(=N/O)c2cc(OC)c(OC)c(OC)c2)c(OC)c1N is greater than or equal to 30 µM
Response: rule met

Request: # check: TGI of O[C@H]1[C@H](O)[C@@H](Cn2nnc(-c3ccccc3)c2-c2ccccc2)OCO[C@@H]1Cn1nnc(-c2ccccc2)c1-c1ccccc1 is greater than or equal to 30 µM
Response: rule not met
